Molecular target: Tyrosine-protein phosphatase YopH (Yersinia pseudotuberculosis serotype I (strain IP32953))
Experiment: Inhibition of Yersinia pseudotuberculosis YP3-pIB102 YopH at 100 uM
Label scheme for inhibition: lower than 70% is FALSE, 70% and above is TRUE.

Some solved entries appear below for comparison.
> print(dat)
                                chem.smiles  assigned.category
1  O=C(Nc1ccc(Cl)c(Cl)c1)c1cc(F)c(F)cc1NS(=O)(=O)c1cc(Cl)cc(Cl)c1O               TRUE
2  O=C(Nc1ccc(Cl)c(Cl)c1)c1cc(Cl)ccc1NS(=O)(=O)c1cccc2nsnc12              FALSE
3  O=C(Nc1ccc(Cl)c(Cl)c1)c1cc(F)c(F)cc1NS(=O)(=O)c1cccc([N+](=O)[O-])c1               TRUE
4  O=C(Nc1ccc2c(c1)OCO2)c1ccc(Cl)cc1NS(=O)(=O)c1ccccc1              FALSE
5  COc1ccc(NC(=O)c2ccc(Cl)cc2NS(=O)(=O)c2ccc(Cl)c(Cl)c2)cc1              FALSE

Query: hey, is inhibition for this one >= 70%? `O=C(Nc1ccc2c(c1)OCO2)c1ccc(Cl)cc1NS(=O)(=O)c1ccc(Cl)c(Cl)c1`
Result: FALSE

====

Here the recorded inhibition is given for each entry.
Test system: Yersinia pseudotuberculosis
Experiment: Effect on T3S in Yersinia pseudotuberculosis 3 pIB29 assessed as inhibition of light emission at 100 uM by luciferase reporter gene assay
Answer with a number only, understood to be in %.

Use these answered entries as a reference point.
> print(dat)
                                chem.smiles  unit.descriptor  quantitative.result
1  O=C(Nc1ccc(F)c(F)c1)c1cc(F)c(F)cc1NS(=O)(=O)c1cccc([N+](=O)[O-])c1                %                   49
2  COc1ccc(NC(=O)c2ccc(Cl)cc2NS(=O)(=O)c2ccc(Cl)c(Cl)c2)cc1                %                   72
3  O=C(Nc1ccc(Cl)c(Cl)c1)c1cc(Cl)ccc1NS(=O)(=O)c1cccc2nsnc12                %                   62
4  O=C(Nc1cccc(Cl)c1)c1cc(Cl)ccc1NS(=O)(=O)c1cccc2nsnc12                %                   55
5  O=C(Nc1ccc(F)cc1)c1cc(Cl)ccc1NS(=O)(=O)c1cc(Cl)cc(Cl)c1O                %                   88

Query: // fetch inhibition given entry `COc1ccc(NC(=O)c2ccc(Cl)cc2NS(=O)(=O)c2cccc(F)c2)cc1`
Result: 51

Query: // fetch inhibition given entry `CN(C)c1ccc(NC(=O)c2cc(Cl)ccc2NS(=O)(=O)c2cccc([N+](=O)[O-])c2)cc1`
Result: 7

Query: // fetch inhibition given entry `O=C(Nc1ccc(F)cc1)c1cc(F)c(F)cc1NS(=O)(=O)c1cccc(F)c1`
Result: 75

Query: // fetch inhibition given entry `O=C(Nc1ccc(Cl)cc1)c1ccccc1NS(=O)(=O)c1cccc2nsnc12`
Result: 18

====

Tested on: Yersinia pseudotuberculosis
Experiment: Effect on T3S in Yersinia pseudotuberculosis 3 pIB29 assessed as inhibition of light emission at 20 uM by luciferase reporter gene assay
Label scheme for inhibition: lower than 20% is F, 20% and above is T.

> print(dat)
                                chem.smiles               assayed.target  assigned.category
1  O=C(Nc1cccc(Cl)c1)c1cc(Cl)ccc1NS(=O)(=O)c1cccc2nsnc12  Yersinia pseudotuberculosis                  F
2  COc1ccc(NC(=O)c2ccc(Cl)cc2NS(=O)(=O)c2cccc(F)c2)cc1  Yersinia pseudotuberculosis                  F
3  O=C(Nc1ccc(F)c(F)c1)c1ccc(Cl)cc1NS(=O)(=O)c1cccc2nsnc12  Yersinia pseudotuberculosis                  F

Query: hey, is inhibition for this one >= 20%? `Cc1ccc(S(=O)(=O)Nc2cc(F)c(F)cc2C(=O)Nc2ccc(Cl)c(Cl)c2)cc1`
Result: F

Query: hey, is inhibition for this one >= 20%? `O=C(Nc1ccc2cccnc2c1)c1cc(Cl)ccc1NS(=O)(=O)c1ccc(Cl)c(Cl)c1`
Result: T

Query: hey, is inhibition for this one >= 20%? `O=C(Nc1ccc(F)cc1)c1cc(Cl)ccc1NS(=O)(=O)c1cc(Cl)cc(Cl)c1O`
Result: T

Query: hey, is inhibition for this one >= 20%? `O=C(Nc1ccc(Cl)c(Cl)c1)c1cc(Cl)ccc1NS(=O)(=O)c1ccccc1`
Result: T

Query: hey, is inhibition for this one >= 20%? `CC(=O)c1ccc(S(=O)(=O)Nc2cc(Cl)ccc2C(=O)Nc2ccc(F)c(Cl)c2)cc1`
Result: T

Query: hey, is inhibition for this one >= 20%? `O=C(Nc1ccc(Cl)c(Cl)c1)c1cc(F)c(F)cc1NS(=O)(=O)c1cccc2nsnc12`
Result: T

====

Molecular target: Tyrosine-protein phosphatase YopH (Yersinia pseudotuberculosis serotype I (strain IP32953))
Assay: Inhibition of Yersinia pseudotuberculosis YP3-pIB102 YopH at 50 uM
Here the recorded inhibition is given for each entry.
Answer with a number only, understood to be in %.

> print(dat)
                                chem.smiles  quantitative.result
1  O=C(Nc1ccc(Cl)c(Cl)c1)c1cc(F)c(F)cc1NS(=O)(=O)c1cc(Cl)cc(Cl)c1O                   80
2  O=C(Nc1ccc(Cl)c(Cl)c1)c1cc(F)c(F)cc1NS(=O)(=O)c1cccc([N+](=O)[O-])c1                   74
3  O=C(Nc1ccc2c(c1)OCO2)c1ccc(Cl)cc1NS(=O)(=O)c1ccc(Cl)c(Cl)c1                   64

Query: // fetch inhibition given entry `COc1ccc(NC(=O)c2ccc(Cl)cc2NS(=O)(=O)c2ccc(Cl)c(Cl)c2)cc1`
Result: 35

Query: // fetch inhibition given entry `O=C(Nc1ccc2c(c1)OCO2)c1ccc(Cl)cc1NS(=O)(=O)c1ccccc1`
Result: 25

Query: // fetch inhibition given entry `O=C(Nc1ccc(Cl)c(Cl)c1)c1cc(Cl)ccc1NS(=O)(=O)c1cccc2nsnc12`
Result: 66

Query: // fetch inhibition given entry `O=C(Nc1ccc(F)cc1)c1cc(F)c(F)cc1NS(=O)(=O)c1cccc(F)c1`
Result: 63

====

Test system: Yersinia pseudotuberculosis
Assay: Effect on T3S in Yersinia pseudotuberculosis 3 pIB29 assessed as inhibition of light emission at 20 uM by luciferase reporter gene assay
Classification scheme (inhibition): Low (below 4%), Mid (4% to below 60%), High (60% or more)

Some solved entries appear below for comparison.
> print(dat)
                                chem.smiles  assigned.category
1  O=C(Nc1ccc(Cl)c(Cl)c1)c1cc(F)c(F)cc1NS(=O)(=O)c1cccc([N+](=O)[O-])c1                Mid
2  O=C(Nc1ccc2c(c1)OCO2)c1ccc(Cl)cc1NS(=O)(=O)c1ccc(Cl)c(Cl)c1               High
3  O=C(Nc1ccc(Cl)cc1)c1ccccc1NS(=O)(=O)c1cccc2nsnc12                Mid
4  CN(C)c1ccc(NC(=O)c2cc(Cl)ccc2NS(=O)(=O)c2ccccc2)cc1                Low
5  O=C(Nc1ccc(F)cc1)c1cc(F)c(F)cc1NS(=O)(=O)c1cccc(F)c1                Mid
6  O=C(Nc1ccc(Cl)c(Cl)c1)c1cc(F)c(F)cc1NS(=O)(=O)c1cc(Cl)cc(Cl)c1O               High

Query: Class (by measured inhibition) for `O=C(Nc1ccc2cccnc2c1)c1cc(Cl)ccc1NS(=O)(=O)c1ccccc1`
Result: Low

====

Here the recorded inhibition is given for each entry.
System: Yersinia pseudotuberculosis
Assay: Effect on T3S in Yersinia pseudotuberculosis 3 pIB29 assessed as inhibition of light emission at 100 uM by luciferase reporter gene assay
Answer with a number only, understood to be in %.

Use these answered entries as a reference point.
> print(dat)
                                chem.smiles  unit.descriptor  quantitative.result
1  CC(=O)c1ccc(S(=O)(=O)Nc2cc(Cl)ccc2C(=O)Nc2ccc(F)c(Cl)c2)cc1                %                   72
2  O=C(Nc1ccc2cccnc2c1)c1cc(Cl)ccc1NS(=O)(=O)c1ccccc1                %                   10
3  O=C(Nc1ccc(Cl)c(Cl)c1)c1cc(F)c(F)cc1NS(=O)(=O)c1cc(Cl)cc(Cl)c1O                %                   92
4  Cc1ccc(S(=O)(=O)Nc2cc(F)c(F)cc2C(=O)Nc2ccc(Cl)c(Cl)c2)cc1                %                    2
5  O=C(Nc1ccc(F)c(F)c1)c1ccc(Cl)cc1NS(=O)(=O)c1cc(Cl)cc(Cl)c1O                %                   87

Query: // fetch inhibition given entry `O=C(Nc1ccc(Cl)c(Cl)c1)c1ccc(Cl)cc1NS(=O)(=O)c1cccc2nsnc12`
Result: 68

Query: // fetch inhibition given entry `O=C(Nc1ccc2cccnc2c1)c1cc(Cl)ccc1NS(=O)(=O)c1ccc(Cl)c(Cl)c1`
Result: 52

Query: // fetch inhibition given entry `O=C(Nc1ccc(Cl)c(Cl)c1)c1cc(F)c(F)cc1NS(=O)(=O)c1cccc([N+](=O)[O-])c1`
Result: 90

Query: // fetch inhibition given entry `O=C(Nc1ccccc1)c1cc(Cl)ccc1NS(=O)(=O)c1cccc2nsnc12`
Result: 20
